# protocol_notes: Clearance in Sprague-Dawley rat at 2 mg/kg, iv by LC-MS/MS analysis
# Type: ADME, organism-based
# test_parameters: in vivo
value_kind: clearance (mL/min/kg)

INSERT INTO results (compound, val) VALUES
  ('COc1cc(N2CCN(C(=O)CCOCC#Cc3ccc4c(c3)C(=O)N(C3CCC(=O)NC3=O)C4=O)CC2)ccc1NC(=O)c1cccc(-c2ccn[nH]2)n1 (stereo unspecified)', 25.6);

* * *

# protocol_notes: Oral bioavailability in Sprague-Dawley rat at 20 mg/kg by LC-MS/MS analysis
# Type: ADME, organism-based
# test_parameters: in vivo
value_kind: bioavailability

INSERT INTO results (molecule, val) VALUES
  ('COc1cc(N2CCN(C(=O)CCOCC#Cc3ccc4c(c3)C(=O)N(C3CCC(=O)NC3=O)C4=O)CC2)ccc1NC(=O)c1cccc(-c2ccn[nH]2)n1 (stereo unspecified)', '8.15%');

* * *

# experimental_target: Interleukin-1 receptor-associated kinase 4 (Homo sapiens, UniProt Q9NWZ3)
# Sequence (Q9NWZ3 whole entry): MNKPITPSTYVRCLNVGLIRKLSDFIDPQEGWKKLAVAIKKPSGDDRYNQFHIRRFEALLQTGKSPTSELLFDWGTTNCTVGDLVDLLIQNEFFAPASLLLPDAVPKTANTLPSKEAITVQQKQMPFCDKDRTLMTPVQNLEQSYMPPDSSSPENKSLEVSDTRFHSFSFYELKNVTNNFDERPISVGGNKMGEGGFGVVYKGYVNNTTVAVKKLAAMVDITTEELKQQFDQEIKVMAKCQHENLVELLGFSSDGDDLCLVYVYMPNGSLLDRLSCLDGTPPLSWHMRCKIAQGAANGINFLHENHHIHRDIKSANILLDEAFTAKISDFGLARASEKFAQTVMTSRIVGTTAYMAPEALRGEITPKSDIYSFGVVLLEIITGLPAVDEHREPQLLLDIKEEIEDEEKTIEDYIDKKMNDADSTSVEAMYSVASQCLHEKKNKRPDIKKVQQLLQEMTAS
# protocol_notes: Inhibition of IRAK4 (unknown origin)
pIC50: −log10 of the molar value.
value_kind: pIC50

INSERT INTO results (compound, value_kind, val) VALUES
  ('COc1cc(N2CCN(C(=O)CCCCCNc3cccc4c3C(=O)N(C3CCC(=O)NC3=O)C4=O)CC2)ccc1NC(=O)c1cccc(-c2ccn[nH]2)n1 (stereo not drawn)', 'pIC50', '> 7.00'),
  ('COc1cc(N2CCN(C(=O)CCCCCCCCCCCNc3cccc4c3C(=O)N(C3CCC(=O)NC3=O)C4=O)CC2)ccc1NC(=O)c1cccc(-c2ccn[nH]2)n1 (stereo not drawn)', 'pIC50', '> 7.00'),
  ('COc1cc(N2CCN(C(=O)C3CN(c4ccc5c(c4)C(=O)N(C4CCC(=O)NC4=O)C5=O)C3)CC2)ccc1NC(=O)c1cccc(-c2ccn[nH]2)n1 (stereo not drawn)', 'pIC50', '> 7.00');

* * *

# protocol_notes: Tmax in Sprague-Dawley rat at 2 mg/kg, iv by LC-MS/MS analysis
# Assay type: ADME, organism-based
# test_parameters: in vivo
value_kind: Tmax (min)

INSERT INTO results (compound, val) VALUES
  ('COc1cc(N2CCN(C(=O)CCOCC#Cc3ccc4c(c3)C(=O)N(C3CCC(=O)NC3=O)C4=O)CC2)ccc1NC(=O)c1cccc(-c2ccn[nH]2)n1 (stereo unspecified)', 4.98);

* * *

# protocol_notes: Half life in Sprague-Dawley rat at 2 mg/kg, iv by LC-MS/MS analysis
# Assay type: ADME, organism-based
# test_parameters: in vivo
value_kind: half-life (min)

INSERT INTO measurements (molecule, val) VALUES
  ('COc1cc(N2CCN(C(=O)CCOCC#Cc3ccc4c(c3)C(=O)N(C3CCC(=O)NC3=O)C4=O)CC2)ccc1NC(=O)c1cccc(-c2ccn[nH]2)n1 (stereo unspecified)', 29.2);

* * *

# protocol_notes: Half life in Sprague-Dawley rat at 20 mg/kg, po by LC-MS/MS analysis
# Type: ADME, organism-based
# test_parameters: in vivo
value_kind: half-life (h)

INSERT INTO results (compound, val) VALUES
  ('COc1cc(N2CCN(C(=O)CCOCC#Cc3ccc4c(c3)C(=O)N(C3CCC(=O)NC3=O)C4=O)CC2)ccc1NC(=O)c1cccc(-c2ccn[nH]2)n1 (stereo unspecified)', 1.45);
